molecular target: PARP (Mus musculus, UniProt P11103); construct: endogenous in cells; host or cells: L1210 murine leukaemia cells, permeabilised by hypotonic buffer and cold shock; assay: PARP inhibition assay ([32P]-NAD incorporation into TCA-precipitated poly(ADP-ribose) in permeabilised L1210 cells, oligonucleotide activated); type: biochemical, L1210 murine leukaemia cells; conditions: 10 μM; read-out: % Inhibition (PARP)
Sequence (P11103 whole entry): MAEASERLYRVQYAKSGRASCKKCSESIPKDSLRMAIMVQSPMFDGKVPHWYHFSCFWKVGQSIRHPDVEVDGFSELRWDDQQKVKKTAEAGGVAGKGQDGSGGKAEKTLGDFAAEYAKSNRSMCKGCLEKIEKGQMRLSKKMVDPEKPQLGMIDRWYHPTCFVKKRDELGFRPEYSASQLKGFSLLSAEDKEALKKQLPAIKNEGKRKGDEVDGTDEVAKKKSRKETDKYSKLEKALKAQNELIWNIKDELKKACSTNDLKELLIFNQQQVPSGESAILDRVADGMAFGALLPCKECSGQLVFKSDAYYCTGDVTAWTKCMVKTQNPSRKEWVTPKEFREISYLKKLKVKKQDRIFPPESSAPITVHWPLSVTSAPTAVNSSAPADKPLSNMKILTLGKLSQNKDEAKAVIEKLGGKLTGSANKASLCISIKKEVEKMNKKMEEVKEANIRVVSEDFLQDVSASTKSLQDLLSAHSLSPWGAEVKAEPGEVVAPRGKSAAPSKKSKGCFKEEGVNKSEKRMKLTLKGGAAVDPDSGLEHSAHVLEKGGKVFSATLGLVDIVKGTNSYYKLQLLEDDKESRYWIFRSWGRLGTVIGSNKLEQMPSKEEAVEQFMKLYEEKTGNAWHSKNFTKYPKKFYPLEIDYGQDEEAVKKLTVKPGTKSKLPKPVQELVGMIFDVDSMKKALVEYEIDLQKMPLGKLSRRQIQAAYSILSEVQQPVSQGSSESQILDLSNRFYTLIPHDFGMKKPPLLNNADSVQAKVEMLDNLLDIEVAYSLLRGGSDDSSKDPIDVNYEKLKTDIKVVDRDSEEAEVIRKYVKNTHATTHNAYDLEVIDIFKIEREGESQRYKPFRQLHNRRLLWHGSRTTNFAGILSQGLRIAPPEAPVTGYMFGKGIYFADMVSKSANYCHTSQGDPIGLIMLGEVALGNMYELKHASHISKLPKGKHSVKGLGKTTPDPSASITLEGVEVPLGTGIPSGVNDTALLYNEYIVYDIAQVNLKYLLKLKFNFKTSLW
ENDPOINT: inhibition at 10 µM (%)

>  <MOLECULE>
NC(=O)c1cccc(OCc2ccc(Br)cc2)c1 [NU1014, 3-(4-Bromobenzyloxy)benzamide]

>  <VALUE_UNITS>
%

>  <inhibition at 10 µM>
23

$$$$

[I] NC(=O)c1cccc(OCCCCCCCCCCCCn2cnc3c(N)ncnc32)c1 [NU1029, 3-(12-adenos-9-yldodecyloxy)benzamide]
[II] NC(=O)c1cccc(OCCCCCn2cnc3c(N)ncnc32)c1 [NU1024, 3-(5-Adenos-9-ylpentyloxy)benzamide]
[III] NC(=O)c1cccc2c1OCO2 [NU1034, 2,3-methylenedioxy benzamide]
Q) Returns the items ordered by inhibition at 10 µM, from maximum to minimum. Give the labels in the order requested.
A) III, I, II

====

biological target: PARP (Mus musculus, UniProt P11103); construct: endogenous in cells; host or cells: L1210 murine leukaemia cells, permeabilised by hypotonic buffer and cold shock; assay: PARP inhibition assay ([32P]-NAD incorporation into TCA-precipitated poly(ADP-ribose) in permeabilised L1210 cells, oligonucleotide activated); type: biochemical, L1210 murine leukaemia cells; conditions: 100 μM; read-out: % Inhibition (PARP)
ENDPOINT: inhibition at 100 µM (%)

>  <COMPOUND>
CCCCOc1cccc(C(N)=O)c1 [NU1038, 3-butoxybenzamide]

>  <VALUE_UNITS>
%

>  <inhibition at 100 µM>
78

$$$$
>  <COMPOUND>
NC(=O)c1cccc(N)c1 [3-aminobenzamide]

>  <VALUE_UNITS>
%

>  <inhibition at 100 µM>
79

$$$$
>  <COMPOUND>
NC(=O)c1cccc(O)c1 [3-hydroxybenzamide, reference compound]

>  <VALUE_UNITS>
%

>  <inhibition at 100 µM>
81

$$$$
>  <COMPOUND>
NC(=O)c1cccc(OCCCCCBr)c1 [NU1019, 3-(5-Bromopentyloxy)benzamide]

>  <VALUE_UNITS>
%

>  <inhibition at 100 µM>
81

$$$$
>  <COMPOUND>
C=CCOc1cccc(C(N)=O)c1 [NU1031, 3-Allyloxybenzamide]

>  <VALUE_UNITS>
%

>  <inhibition at 100 µM>
80

$$$$

====

Target: PARP (Mus musculus, UniProt P11103)
Construct: endogenous in cells; host or cells: L1210 murine leukaemia cells, permeabilised by hypotonic buffer and cold shock
Assay: PARP inhibition assay ([32P]-NAD incorporation into TCA-precipitated poly(ADP-ribose) in permeabilised L1210 cells, oligonucleotide activated)
Format: biochemical, L1210 murine leukaemia cells
Settings: 10 μM; read-out: % Inhibition (PARP)
Description: In principle, the PARP assay used relies upon activating endogenous PARP (as hereinafter described) in cells containing exogenous [^32 P]-NAD^+ introduced therein by suspending the cells in a solution of [^32 P]-NAD^+ to which they have been rendered permeable in an initial pretreatment step. […]
ENDPOINT: inhibition at 10 µM (%)

>  <COMPOUND>
NC(=O)c1cccc(OCCCCCn2cnc3c(Cl)ncnc32)c1

>  <TARGET_OR_SYSTEM>
PARP (Mus musculus, UniProt P11103)

>  <VALUE_UNITS>
%

>  <MEASURED_VALUE>
26

$$$$
>  <COMPOUND>
NC(=O)c1cccc(OCCCCCCCCn2cnc3c(Cl)ncnc32)c1

>  <TARGET_OR_SYSTEM>
PARP (Mus musculus, UniProt P11103)

>  <VALUE_UNITS>
%

>  <MEASURED_VALUE>
30

$$$$
>  <COMPOUND>
NC(=O)c1cccc(OCCCCCCCCn2cnc3c(N)ncnc32)c1 [NU1022, 3-(8-adenos-9-yloctyloxy)benzamide]

>  <TARGET_OR_SYSTEM>
PARP (Mus musculus, UniProt P11103)

>  <VALUE_UNITS>
%

>  <MEASURED_VALUE>
30

$$$$
